Recorded melting point values for a group of compounds are listed next.

## Task I would be grateful if you could share the reported melting point for Cc1nn(Cc2ccccn2)c(C)c1-c1cncc(Nc2ccc(C(F)(F)F)cc2)n1 [compound 400] .
## Result 50 to 51 °C

## Task Sample Fc1cc(F)c2nc(C3CC3)n(-c3cncc(Nc4ccc(C(F)(F)F)nc4)n3)c2c1 [compound 464] — what was its melting point?
## Result 267 to 270 °C

## Task Look up melting point: FC1(F)Oc2ccc(Nc3cncc(-c4cccc5nc(C6CCC6)cn45)n3)cc2O1 [compound 117]
## Result 302 to 305 °C

## Task Recorded melting point for COc1cccc(Nc2cncc(-c3c(C)nc4ccc(F)cn34)n2)c1 [compound 596] , please?
## Result 270 to 273 °C

## Task So what does the record say about melting point for Cc1nc2ccc(F)cn2c1-c1cncc(Nc2cccc(C(F)(F)F)c2)n1 [compound 594] ?
## Result 188 to 190 °C

====

Below, each of the compounds is paired with its reported melting point value.

[[record]]
chemical_smiles = "COC(=O)c1ccc2nc(C(F)(F)F)c(-c3cncc(Nc4ccc(OC(F)F)cc4)n3)n2c1"
meas_value = "227 to 229 °C"


## Task For the compound shown here, `CCc1nc2ccc(F)cc2n1-c1cncc(Nc2cccc(Cl)c2)n1` , give the reported melting point.
## Result 192 to 195 °C

## Task Please look up its melting point: `Cc1nc2ccc(F)cc2n1-c1cncc(Nc2ccc(OC(F)(F)F)cc2)n1`
## Result 215 to 217 °C

## Task Bench note: what melting point did `Cc1cn2c(-c3cncc(Nc4ccc(C(F)(F)F)cc4)n3)c(C)nc2c(C)n1` show?
## Result 102 to 105 °C

## Task Sample `N#Cc1cc(Nc2ccc(OC(F)(F)F)cc2)nc(-c2c(C3CC3)nc3ccc(F)cn23)c1` — what was its melting point?
## Result 194 to 195 °C

## Task I would be grateful if you could share the reported melting point for `N#Cc1cc(Nc2ccc(C(F)(F)F)cc2)nc(-n2c(C3CC3)nc3ccc(F)cc32)c1` .
## Result 291 to 293 °C

## Task Would you kindly share the measured melting point for `Cc1nc2ccc(F)cc2n1-c1cc(C#N)cc(Nc2ccc(C(F)(F)F)cc2)n1` ?
## Result 223 to 225 °C

## Task Reported melting point, compound `N#Cc1cc(Nc2ccc(C(F)(F)F)nc2)nc(-c2c(C(F)F)nc3ccc(F)cn23)c1` : ____
## Result 285 to 288 °C

====

Readings of melting point for the listed compounds

Worked cases, answers included:
[[record]]
compound = "Cc1ccc(Nc2cncc(-c3c(C)noc3C)n2)cc1 [compound 635]"
meas_value = "186 to 188 °C"

[[record]]
compound = "CCn1nc(C(F)(F)F)c(-c2cncc(Nc3ccc(OC(F)(F)F)cc3)n2)c1C [compound 331]"
meas_value = "128 to 129 °C"

[[record]]
compound = "Cc1nn(Cc2ccccn2)c(C)c1-c1cncc(Nc2ccc(OC(F)F)cc2)n1 [compound 401]"
meas_value = "47 to 48 °C"

[[record]]
compound = "Cc1nc2c(F)cc(F)cn2c1-c1cc(C#N)cc(Nc2ccc(OC(F)F)cc2)n1 [compound 442]"
meas_value = "236 to 238 °C"

[[record]]
compound = "N#Cc1cc(Nc2ccc(C(F)(F)F)cc2)nc(-c2c(C(F)F)nc3ccc(F)cn23)c1 [compound 466]"
meas_value = "249 to 251 °C"

[[record]]
compound = "Cc1nn(CC[C@H](O)CO)c(C)c1-c1cncc(Nc2ccc(C(F)(F)F)cc2)n1 [compound 404]"
meas_value = "75 to 77 °C"

[[record]]
compound = "NC(=O)Nc1cc(Nc2ccc(C(F)(F)F)cc2)nc(-c2c(C3CC3)nc3ccc(F)cn23)c1 [compound 369]"
meas_value = "232 to 235 °C"

[[record]]
compound = "[O-][n+]1cc(Nc2ccc(C(F)(F)F)cc2)nc(-c2c(C3CC3)nn3ccc(F)cc23)c1 [compound 536]"
meas_value = "183 to 186 °C"


## Task Quick one: melting point of COc1ccc(Nc2cncc(-c3c(C)noc3C)n2)cc1 [compound 636] ?
## Result 154 to 155 °C

## Task Recorded melting point of Cc1nc2ncc(F)cn2c1-c1cc(C#N)cc(Nc2ccc(OC(F)F)c(F)c2)n1 [compound 439] , please.
## Result 268 to 270 °C

## Task What does the record list as melting point for Nc1cc(Nc2ccc(OC(F)F)c(F)c2)nc(-c2c(C3CC3)nc3ccc(F)cn23)c1 [compound 366] ?
## Result 169 to 170 °C

## Task May I ask what melting point has been recorded for COc1ccc(Nc2cc(C#N)cc(-c3c(C)nc4ccc(F)cn34)n2)cc1 [compound 649] ?
## Result 190 to 192 °C

## Task Which melting point value belongs to FC(F)(F)c1ccc(Nc2cncc(-c3cccc4nc(C5CC5)cn34)n2)cc1 [compound 89] ?
## Result 266 to 268 °C

## Task Reported melting point for Cc1cc(Nc2cc(C#N)cc(-c3c(C)nc4ccc(F)cn34)n2)cnc1OC(F)F [compound 470] : what is it?
## Result 219 to 222 °C

## Task Quick one: melting point of Cc1nn(C)c(C)c1-c1cc(C#N)cc(Nc2ccc(OC(F)(F)F)cc2)n1 [compound 265] ?
## Result 135 to 136 °C

## Task I would be grateful if you could share the reported melting point for N#Cc1cc(Nc2ccc(OC(F)F)cc2)nc(-c2c(C(F)F)nc3ccc(F)cn23)c1 [compound 467] .
## Result 215 to 217 °C

## Task Data request, read-out melting point, for FC1(F)Oc2ccc(Nc3cncc(-c4c(C(F)(F)F)nc5ccccn45)n3)cc2O1 [compound 91]
## Result 232 to 234 °C

====

# System: Bmi-1 protein
# ASSAY_DETAILS: Sandwich ELISA Assay (Bmi-1 protein level in HT-1080 cells after compound treatment)
# Assay type: cell-based
# CONDITION_SET: read-out: ELISA EC50 value for Bmi-1 protein, Table 1, Bmi-1 sandwich ELISA
pEC50: −log10 of the molar value.
PARAMETER: pEC50

Example entries begin here.
[[record]]
chemical_smiles = "Fc1cc(F)c2nc(C3CC3)n(-c3cncc(Nc4ccc(C(F)(F)F)cc4)n3)c2c1"
test_target = "Bmi-1 protein"
meas_value = "7.00 to 8.00"

[[record]]
chemical_smiles = "FC(F)(F)c1ccc(Nc2cncc(-c3c(C(F)(F)F)nc4ncccn34)n2)cc1"
test_target = "Bmi-1 protein"
meas_value = "7.00 to 8.00"

[[record]]
chemical_smiles = "Cc1c(-c2cncc(Nc3ccc(OC(F)F)cc3)n2)c(C(F)(F)F)nn1C"
test_target = "Bmi-1 protein"
meas_value = "7.00 to 8.00"

[[record]]
chemical_smiles = "Cc1nn2ccccc2c1-c1cncc(Nc2ccc(C(F)(F)F)cc2)n1"
test_target = "Bmi-1 protein"
meas_value = "8.00 to 9.00"

[[record]]
chemical_smiles = "COc1ccc(Nc2cccc(-n3c(C(F)(F)F)nc4ccccc43)n2)cc1"
test_target = "Bmi-1 protein"
meas_value = "7.00 to 8.00"


## Task Record request: pEC50 value, item `COc1ccc(Nc2cc(C#N)cc(-c3c(C(F)(F)F)nc4ccccn34)n2)cc1`
## Result 8.00 to 9.00

## Task Field request: pEC50 | item: `N#Cc1cc(Nc2ccc(C(F)(F)F)cc2)nc(-c2c(C(F)(F)F)nc3n2CCCC3)c1`
## Result 7.00 to 8.00

## Task Sample `Cc1nc2ccccc2n1-c1cc(C#N)cc(Nc2ccc(C(F)(F)F)cc2)n1` — what was its pEC50?
## Result 7.00 to 8.00

====

Some molecules, each annotated with its measured melting point.

Example results:
[[record]]
chemical_smiles = "Cc1cnc(Nc2cccc(-c3c(C(F)(F)F)nc4ccccn34)n2)s1"
parameter = "melting point"
meas_value = "270 to 271 °C"

[[record]]
chemical_smiles = "Fc1ccc2nc(C3CC3)c(-c3cncc(Nc4ccc(C(F)(F)F)cc4)n3)n2c1"
parameter = "melting point"
meas_value = "183 to 185 °C"

[[record]]
chemical_smiles = "Fc1cc(F)c2nc(C3CC3)n(-c3cncc(Nc4ccc(OC(F)F)cc4)n3)c2c1"
parameter = "melting point"
meas_value = "202 to 203 °C"


## Task What does the data say about its melting point? Entry: `N#Cc1cc(Nc2ccc(C(F)(F)F)cc2)nc(-n2c(C3CC3)nc3c(F)cc(F)cc32)c1`
## Result 233 to 235 °C

## Task Requested read-out: melting point. Entry: `CCn1nc(C)c(-c2cncc(Nc3ccc(C(F)(F)F)cc3)n2)c1C`
## Result 78 to 79 °C

## Task Query (molecule): `COC(=O)c1ccc(Nc2cncc(-n3c(C)nc4ccc(F)cc43)n2)cc1` ; field requested: melting point
## Result 198 to 200 °C
